Measured values drawn from patent US20080194574A1 for this set.

molecular target: viral kinase pUL-97 (Human cytomegalovirus); construct: The pUL-97 gene was cloned into a baculovirus vector; GST (glutathione S-transferase) (N); made in house; host or cells: Sf9 insect cells, baculovirus; assay: UL97 kinase assay on Immobilon plate; type: biochemical; conditions: inhibition of UL 97 kinase activity; class by IC50 / % inhibition at 10 μM or 100 μM; read-out: Activity Class [A, B, C]
Sequence (P16788 whole entry): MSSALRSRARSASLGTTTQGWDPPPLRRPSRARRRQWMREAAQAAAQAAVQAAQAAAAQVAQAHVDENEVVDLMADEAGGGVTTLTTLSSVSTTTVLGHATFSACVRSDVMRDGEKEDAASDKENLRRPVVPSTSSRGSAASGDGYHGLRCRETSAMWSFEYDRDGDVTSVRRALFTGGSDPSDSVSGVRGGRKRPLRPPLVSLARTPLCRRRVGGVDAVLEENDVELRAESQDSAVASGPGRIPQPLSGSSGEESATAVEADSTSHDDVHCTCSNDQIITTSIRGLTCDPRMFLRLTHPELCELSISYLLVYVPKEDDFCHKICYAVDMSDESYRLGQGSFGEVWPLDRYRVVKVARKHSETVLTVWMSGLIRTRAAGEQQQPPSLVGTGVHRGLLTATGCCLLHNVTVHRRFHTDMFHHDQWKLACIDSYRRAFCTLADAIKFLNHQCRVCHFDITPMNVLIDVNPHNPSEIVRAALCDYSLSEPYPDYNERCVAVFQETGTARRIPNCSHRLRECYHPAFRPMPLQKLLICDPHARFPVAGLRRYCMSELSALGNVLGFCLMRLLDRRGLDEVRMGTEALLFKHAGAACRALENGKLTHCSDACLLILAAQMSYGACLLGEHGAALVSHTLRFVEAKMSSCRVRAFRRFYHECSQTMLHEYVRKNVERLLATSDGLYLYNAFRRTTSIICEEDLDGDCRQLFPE
measurementKind: IC50

Look over these answered cases.
INSERT INTO assay_data (compound, measurementkind, valuereported) VALUES
  ('Cc1ccc(-c2cncc(N3CCN(c4ccccc4F)CC3)n2)cc1', 'IC50', '10 to 100 µM'),
  ('Brc1ccc(-c2cncc(N3CCN(c4cnccn4)CC3)n2)cc1', 'IC50', '< 1 µM');

Hey, quick one: what's IC50 for each of these?
1. OCc1ccc(-c2cncc(N3CCN(c4ccc(F)cc4F)CC3)n2)cc1
2. c1ccc2c(-c3cncc(N4CCN(c5ccncc5)CC4)n3)cccc2c1
3. FC(F)(F)c1cccc(N2CCN(c3cncc(-c4ccoc4)n3)CC2)c1
4. Cc1ccc(N2CCN(c3cncc(-c4ccc(CO)cc4)n3)CC2)c(C)c1

[reply]
1. 10 to 100 µM
2. 1 to 10 µM
3. 10 to 100 µM
4. 10 to 100 µM

* * *

Please respond with reported IC50 for every item in the list.
target: viral kinase pUL-97 (Human cytomegalovirus); construct: The pUL-97 gene was cloned into a baculovirus vector; GST (glutathione S-transferase) (N); made in house; host or cells: Sf9 insect cells, baculovirus; assay: UL97 kinase assay on Immobilon plate; format: biochemical; settings: inhibition of UL 97 kinase activity; class by IC50 / % inhibition at 10 μM or 100 μM; read-out: Activity Class [A, B, C]

A selection of reference data follows.
INSERT INTO assay_data (smi, measurementkind, valuereported) VALUES
  ('Fc1ccc(-c2cncc(N3CCN(c4ccccn4)CC3)n2)cc1', 'IC50', '1 to 10 µM'),
  ('COc1ccc(N2CCN(c3cncc(-c4ccccc4C)n3)CC2)cc1OC', 'IC50', '10 to 100 µM'),
  ('COc1ccc(N2CCN(c3cncc(-c4ccc(C#N)cc4)n3)CC2)cc1', 'IC50', '1 to 10 µM'),
  ('Fc1ccc(N2CCN(c3cncc(-c4ccc5ccccc5c4)n3)CC2)c(F)c1', 'IC50', '1 to 10 µM'),
  ('Cc1ccc(N2CCN(c3cncc(-c4ccc(C(F)(F)F)cc4)n3)CC2)c(C)c1', 'IC50', '10 to 100 µM');

For every item below, please supply its IC50.
1. c1ccc(N2CCN(c3cncc(-c4ccsc4)n3)CC2)nc1
2. CSc1ccc(-c2cncc(N3CCN(c4ccc(Cl)c(Cl)c4)CC3)n2)cc1
3. FC(F)(F)c1ccc(-c2cncc(N3CCN(c4cnccn4)CC3)n2)cc1

[reply]
1: 1 to 10 µM; 2: 10 to 100 µM; 3: 1 to 10 µM

* * *

biological target: viral kinase pUL-97 (Human cytomegalovirus); construct: The pUL-97 gene was cloned into a baculovirus vector; GST (glutathione S-transferase) (N); made in house; host or cells: Sf9 insect cells, baculovirus; experiment: UL97 kinase assay on Immobilon plate; format: biochemical; details: inhibition of UL 97 kinase activity; class by IC50 / % inhibition at 10 μM or 100 μM; read-out: Activity Class [A, B, C]
pIC50: −log10 of the molar value.
Answer each item with its documented pIC50.

INSERT INTO assay_data (molecule, valuereported) VALUES
  ('CC(=O)c1ccc(N2CCN(c3cncc(-c4ccoc4)n3)CC2)cc1 [compound 205]', '5.00 to 6.00'),
  ('Cc1cc(C)cc(-c2cncc(N3CCN(c4ccc(F)cc4F)CC3)n2)c1 [compound 209]', '4.00 to 5.00'),
  ('CCOc1ccc(-c2cncc(N3CCN(c4ccc(F)cc4F)CC3)n2)cc1 [compound 203]', '4.00 to 5.00'),
  ('Fc1cc(-c2cncc(N3CCN(c4cnccn4)CC3)n2)ccc1-c1ccccc1 [compound 334]', '4.00 to 5.00'),
  ('Cc1cccc(-c2cncc(N3CCN(c4cnccn4)CC3)n2)c1 [compound 329]', '5.00 to 6.00'),
  ('CSc1ccc(-c2cncc(N3CCN(c4ccc(C)c(C)c4)CC3)n2)cc1 [compound 359]', '5.00 to 6.00'),
  ('CCOc1ccc(-c2cncc(N3CCN(c4ccncc4)CC3)n2)cc1 [compound 260]', '5.00 to 6.00'),
  ('c1ccc(C2CCN(c3cncc(-c4ccoc4)n3)CC2)cc1 [compound 277]', '4.00 to 5.00'),
  ('COc1cccc(N2CCN(c3cncc(-c4ccc(C(N)=O)cc4)n3)CC2)c1 [compound 364]', '5.00 to 6.00'),
  ('CC(=O)c1ccc(N2CCN(c3cncc(-c4cccc(F)c4)n3)CC2)cc1 [compound 214]', '4.00 to 5.00');

Below are 6 molecules. Give each one its pIC50.
1. CC(=O)c1ccc(-c2cncc(N3CCN(c4ccccn4)CC3)n2)cc1 [compound 308]
2. c1ccc(N2CCN(c3cncc(-c4cccc5ccccc45)n3)CC2)cc1 [compound 246]
3. COc1ccc(-c2cncc(N3CCN(c4ccc(C)cc4)CC3)n2)cc1F [compound 265]
4. Fc1ccc(-c2cncc(N3CCN(c4cccc(Cl)c4)CC3)n2)cc1Cl [compound 238]
5. COc1cccc(-c2cncc(N3CCN(c4cccc(OC)c4)CC3)n2)c1 [compound 366]
6. Cc1cccc(-c2cncc(N3CCN(c4ccccc4)CC3)n2)c1 [compound 244]

[reply]
["5.00 to 6.00", "4.00 to 5.00", "4.00 to 5.00", "4.00 to 5.00", "5.00 to 6.00", "4.00 to 5.00"]
